test-system: T1, Nrd1_(6–151) K21P (S. cerevisiae, UniProt P53617 6-151, K21P)
T1 sequence: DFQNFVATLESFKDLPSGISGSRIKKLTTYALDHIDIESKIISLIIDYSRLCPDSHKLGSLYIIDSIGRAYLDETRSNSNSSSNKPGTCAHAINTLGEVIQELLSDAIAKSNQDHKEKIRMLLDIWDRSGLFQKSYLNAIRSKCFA
method-summary: fluorescence polarisation
Where no end group is shown, it is not given here. [ ]: non-standard residue; d: D form. pS = N[C@@H](COP(=O)(O)O)C(=O)O
readout-kind: pKd
Value format note: pKd is -log10 of concentration (mol/L); just state the number.

Query block: Read the entry Y[pS]PTSPSY[pS]PTSPS [unlabeled double-repeat CTD-Ser2P peptide] and write its reported pKd.
Result block: 3.42
